Source: patent US20230203162A1

target: T1, recombinant human MSLN (purchased from Peprotech) (human, UniProt Q13421 296-598, limits assumed); assay: SPR, MSLN immobilized on CM5, scFv as analyte, 1:1 Langmuir
T1 construct: Bought protein; also called recombinant human mesothelin
reported property: kon (M⁻¹ s⁻¹)
Please respond with the number in M⁻¹ s⁻¹ and leave the unit unwritten.

anti-MSLN scFv PRO1925 (scFv, also called 54-32-A07-sc02) scFv: ALQMTQSPSSLSASVGDRVTITCQASQSISNYLAWYQQKPGKPPKFLIYDASDLASGVSSRFSGSGSGTDFTLTISSLQPEDFATYYCQQVYDSNNVENVFGTGTKVTVLGGGGGSGGGGSGGGGSGGGGSQSQLVESGGGLVQPGGSLRLSCAVSGFSLSSYAMGWVRQAPGKGLEYIGYISKIGTTYYASWAKGRFTISKDNSKNTVYLQMNSLRAEDTAVYFCARGSSSGGYLDDGFDPWGQGTLVTVSS ... 1.63e+06
anti-MSLN scFv PRO2309 (scFv, VL/VH interdomain disulfide variant; also called 54-32-A07-sc09; PRO1925-S14R-T87R-T22K-DIS) scFv: ALQMTQSPSSLSARVGDRVTIKCQASQSISNYLAWYQQKPGKPPKFLIYDASDLASGVPSRFSGSGSGRDFTLTISSLQPEDFATYYCQQVYDSNNVENVFGCGTKVTVLGGGGGSGGGGSGGGGSGGGGSQSQLVESGGGLVQPGGSLRLSCAVSGFSLSSYAMGWVRQAPGKCLEYIGYISKIGTTYYASWAKGRFTISKDNSKNTVYLQMNSLRAEDTAVYFCARGSSSGGYLDDGFDPWGQGTLVTVSS ... 3.11e+06
anti-MSLN scFv PRO2306 (scFv, also called 54-32-A07-sc06; PRO1925-S14R-T87R-T22K) scFv: ALQMTQSPSSLSARVGDRVTIKCQASQSISNYLAWYQQKPGKPPKFLIYDASDLASGVPSRFSGSGSGRDFTLTISSLQPEDFATYYCQQVYDSNNVENVFGTGTKVTVLGGGGGSGGGGSGGGGSGGGGSQSQLVESGGGLVQPGGSLRLSCAVSGFSLSSYAMGWVRQAPGKGLEYIGYISKIGTTYYASWAKGRFTISKDNSKNTVYLQMNSLRAEDTAVYFCARGSSSGGYLDDGFDPWGQGTLVTVSS ... 2.72e+06
reference anti-MSLN scFv PRO1795 (scFv, also called 54-22-H03-sc01) scFv: DIQMTQSPSSLSASVGDRVTITCQASESIGNYLAWYQQKPGKAPKLLIYSASTLASGVPSRFSGSGSGTDFTLTISSLQPEDFATYYCQSTDYGDSYIFGTGTKVTVLGGGGGSGGGGSGGGGSGGGGSEVQLVESGGGLVQPGGSLRLSCAASGISVSNDYYMCWVRQAPGKGLEWIGCISTYIGNTHYASWAKGRFTISRDNSKNTVYLQMNSLRAEDTAVYYCAKNAGYPGYRYAIDLWGQGTLVTVSS ... 568000
anti-MSLN scFv PRO1783 (scFv, also called 54-01-G02-sc01) scFv: DIQMTQSPSSLSASVGDRVTITCQASQNIYSNLAWYQQKPGKAPKLLIYDASDLASGVPSRFSGSGSGTDFTLTISSLQPEDFATYYCQQVRSSSDIDNPFGTGTKVTVLGGGGGSGGGGSGGGGSGGGGSQVQLVESGGGLVQPGGSLRLSCAASGFSLSSYAMGWVRQAPGKGLEWIGYISTINNTYYASWAKGRFTISRDNSKNTVYLQMNSLRAEDTAVYYCAREIRSGWVDYGFSIWGQGTLVTVSS ... 780000

Continue with the binder presented below.
I am curious: what kon value has been reported for anti-MSLN scFv PRO1922 (scFv, also called 54-21-H03-sc01) scFv: DIQMTQSPSSLSASVGDRVTITCQASESIYSSLAWYQQKPGKAPKLLIYLASTLASGVPSRFSGSGSGTDFTLTISSLQPEDFATYYCQSTDYTTSTHRNSFGTGTKVTVLGGGGGSGGGGSGGGGSGGGGSEVQLVESGGGLVQPGGSLRLSCAASGFSFSTTYYMCWVRQAPGKGLEWIGCTNTASSVRTYYATWAKGRFTISRDNSKNTVYLQMNSLRAEDTAVYYCARDMGFADYALNLWGQGTLVTVSS ? 735000
